I'd be grateful if you could share measured IC95 for these entries.
# System: HIV-1 (wild-type)
# assay text: Cell spread assay (MT-4 T-lymphoid cells)
# Format: cell-based
# assay context: Human immunodeficiency virus 1, MT4, 72 h; Table I; concentration reducing spread of infection by at least 95%, MT-4 cells; read-out: CIC*95

Consider the compound COc1ccccc1C#CC1(C(F)(F)F)OC(=O)Nc2ccc(Cl)cc21 (stereo not shown) and give its measured IC95.
6 nM

# input compound: O=C1Nc2ccc(Cl)cc2C(C#Cc2ccccc2)(C(F)(F)F)O1 (racemic) [12(+/-)] ; wanted: its IC95
25 nM

Requested read-out: IC95. Entry: COCC#CC1(C(F)(F)F)OC(=O)Nc2ccc(Cl)cc21 (stereo not shown)
50 nM

Fill in: IC95 of N#Cc1ccccc1C#CC1(C(F)(F)F)OC(=O)Nc2ccc(Cl)cc21 (racemic) is ___
6 nM

Bench note: what IC95 did CCCC1(C2CC2)OC(=O)Nc2ccc(Cl)cc21 (stereo not shown) show?
1500 nM

Which IC95 is reported for this compound? CN(C)CC#CC1(C(F)(F)F)OC(=O)Nc2ccc(Cl)cc21 (stereo not shown)
100 nM

I would be grateful if you could share the reported IC95 for O=C1Nc2ccc(Cl)cc2[C@](C#Cc2ccccc2)(C(F)(F)F)O1 [3(+)] .
> 200 nM

====

# target desc: recombinant HIV reverse transcriptase (HIV RTR) (Human immunodeficiency virus type 1 group M subtype B, UniProt P04585)
# Construct: recombinant HIV reverse transcriptase (HIV RTR); made in house; host or cells: E. coli
# assay text: Reverse transcriptase assay (wild type)
# Assay type: biochemical, HIV-1
# assay context: Table I; wild-type RT; read-out: IC*50 wt
quantity: pIC50
Keep it numeric: pIC50 is minus log10 of the concentration in mol/L.

Quick check: pIC50 of CN(C)CC#CC1(C(F)(F)F)OC(=O)Nc2ccc(Cl)cc21 (stereo not drawn) ?
7.37

Would you mind telling me what pIC50 value was observed for CCC1(c2ccccc2)OC(=O)Nc2ccc(Cl)cc21 (stereo not drawn) ?
6.52

What value of pIC50 has been reported for the following molecule? O=C1Nc2ccc(Cl)cc2C(c2ccccc2)(C(F)(F)F)O1 (stereo not drawn)
6.84

Entry under review: C#CC1(C(F)(F)F)OC(=O)Nc2ccc(Cl)cc21 (racemic) . Reported pIC50?
9.62

Look at this molecule and give its reported pIC50. COc1ccc(C#CC2(C(F)(F)F)OC(=O)Nc3ccc(Cl)cc32)cc1 (stereo not drawn)
7.24

Recorded pIC50 of COCC#CC1(C2CC2)OC(=O)Nc2ccc(Cl)cc21 (stereo not drawn) , please.
6.39

pIC50 lookup needed for CCCCC1(C(F)(F)F)OC(=O)Nc2ccc(Cl)cc21 (stereo not drawn) , thanks.
7.62

Reported pIC50 for CCCC1(c2ccccc2)OC(=O)Nc2ccc(Cl)cc21 (stereo not drawn) : what is it?
5.27

Tell me the measured pIC50 of C=CCCC1(C(F)(F)F)OC(=O)Nc2ccc(Cl)cc21 (racemic) , please.
7.54

Report pIC50 for O=C1Nc2ccc(Cl)cc2C(Sc2ccccc2)(C(F)(F)F)O1 (stereo not drawn) please.
6.07

Could you tell me which pIC50 is on file for COCC#CC1(C(F)(F)F)OC(=O)Nc2ccc(Cl)cc21 (stereo not drawn) ?
7.82

Please give the measured pIC50 for this molecule: C=CCC1(C(F)(F)F)OC(=O)Nc2ccc(Cl)cc21 (stereo not drawn)
6.66

Which pIC50 reading was recorded for the molecule COc1cccc(C#CC2(C(F)(F)F)OC(=O)Nc3ccc(Cl)cc32)c1 (stereo not drawn) ?
7.74

Which pIC50 value belongs to O=C1Nc2ccc(Cl)cc2C(CCCCl)(C(F)(F)F)O1 (stereo not drawn) ?
6.89

Quick one: pIC50 for CCCC1(CC)OC(=O)Nc2ccc(Cl)cc21 (stereo not drawn) ?
7.28

# lookup: pIC50 of O=C1Nc2ccc(Cl)cc2C(C#Cc2ccccc2)(C(F)(F)F)O1 (racemic) [12(+/-)]
7.92

Would you kindly share the measured pIC50 for CN(C)CC#CC1(C2CC2)OC(=O)Nc2ccc(Cl)cc21 (stereo not drawn) ?
6.39

Any idea what its pIC50 is? The molecule is O=C1Nc2ccc(Cl)cc2C(C#CCN2CCCC2)(C(F)(F)F)O1 (racemic)
7.04

Given O=C1Nc2ccc(Cl)cc2C(CCc2ccccc2)(C(F)(F)F)O1 (stereo not drawn) , state its recorded pIC50.
7.26

So what's the measured pIC50 for this one? O=C1Nc2ccc(Cl)cc2C(C#Cc2ccccc2)(C(F)(F)Cl)O1 (racemic)
7.92

I'd like to know its pIC50. The molecule in question is C=CC1(C(F)(F)F)OC(=O)Nc2ccc(Cl)cc21 (stereo not drawn)
5.89

Data request, read-out pIC50, for C#CC1(c2ccccc2)OC(=O)Nc2ccc(Cl)cc21 (stereo not drawn)
6.19

Need pIC50, item O=C1Nc2ccc(Cl)cc2C(C#Cc2ccccc2[N+](=O)[O-])(C(F)(F)F)O1 (stereo not drawn)
5.77

So what's the measured pIC50 for this one? CCC1(CC)OC(=O)Nc2ccc(Cl)cc21
4.78

Can you share its pIC50? I mean this molecule: Cc1ccc(C#CC2(C(F)(F)F)OC(=O)Nc3ccc(Cl)cc32)cc1 (stereo not drawn)
6.79

If you can, please state the reported pIC50 value of CCCC1(C(C)(C)C)OC(=O)Nc2ccc(Cl)cc21 (stereo not drawn) .
5.28

Query (molecule): CCCC1(C2CC2)OC(=O)Nc2ccc(Cl)cc21 (stereo not drawn) ; field requested: pIC50
6.51

What value of measured pIC50 is listed for COc1ccccc1C#CC1(C(F)(F)F)OC(=O)Nc2ccc(Cl)cc21 (stereo not drawn) ?
7.80

I am curious: what pIC50 value has been reported for CCC1(C(F)(F)F)OC(=O)Nc2ccc(Cl)cc21 (stereo not drawn) ?
5.64

Need pIC50 of C#CC1(CCC)OC(=O)Nc2ccc(Cl)cc21 (stereo not drawn) , thanks.
5.72

For the molecule shown here, COC(=O)/C=C(/OC)C1(C(F)(F)F)OC(=O)Nc2ccc(Cl)cc21 (stereo not drawn) , give the reported pIC50.
6.41

# query: pIC50 of entry O=C1Nc2ccc(Cl)cc2C(C#CCO)(C(F)(F)F)O1 (stereo not drawn)
6.26

Consider the molecule N#Cc1ccccc1C#CC1(C(F)(F)F)OC(=O)Nc2ccc(Cl)cc21 (racemic) and give its measured pIC50.
7.60
